- target_or_system: human α1G T-type channels (Homo sapiens)
- Construct: expressed in transfected cells; host or cells: HEK 293
- Sequence (O43497 whole entry): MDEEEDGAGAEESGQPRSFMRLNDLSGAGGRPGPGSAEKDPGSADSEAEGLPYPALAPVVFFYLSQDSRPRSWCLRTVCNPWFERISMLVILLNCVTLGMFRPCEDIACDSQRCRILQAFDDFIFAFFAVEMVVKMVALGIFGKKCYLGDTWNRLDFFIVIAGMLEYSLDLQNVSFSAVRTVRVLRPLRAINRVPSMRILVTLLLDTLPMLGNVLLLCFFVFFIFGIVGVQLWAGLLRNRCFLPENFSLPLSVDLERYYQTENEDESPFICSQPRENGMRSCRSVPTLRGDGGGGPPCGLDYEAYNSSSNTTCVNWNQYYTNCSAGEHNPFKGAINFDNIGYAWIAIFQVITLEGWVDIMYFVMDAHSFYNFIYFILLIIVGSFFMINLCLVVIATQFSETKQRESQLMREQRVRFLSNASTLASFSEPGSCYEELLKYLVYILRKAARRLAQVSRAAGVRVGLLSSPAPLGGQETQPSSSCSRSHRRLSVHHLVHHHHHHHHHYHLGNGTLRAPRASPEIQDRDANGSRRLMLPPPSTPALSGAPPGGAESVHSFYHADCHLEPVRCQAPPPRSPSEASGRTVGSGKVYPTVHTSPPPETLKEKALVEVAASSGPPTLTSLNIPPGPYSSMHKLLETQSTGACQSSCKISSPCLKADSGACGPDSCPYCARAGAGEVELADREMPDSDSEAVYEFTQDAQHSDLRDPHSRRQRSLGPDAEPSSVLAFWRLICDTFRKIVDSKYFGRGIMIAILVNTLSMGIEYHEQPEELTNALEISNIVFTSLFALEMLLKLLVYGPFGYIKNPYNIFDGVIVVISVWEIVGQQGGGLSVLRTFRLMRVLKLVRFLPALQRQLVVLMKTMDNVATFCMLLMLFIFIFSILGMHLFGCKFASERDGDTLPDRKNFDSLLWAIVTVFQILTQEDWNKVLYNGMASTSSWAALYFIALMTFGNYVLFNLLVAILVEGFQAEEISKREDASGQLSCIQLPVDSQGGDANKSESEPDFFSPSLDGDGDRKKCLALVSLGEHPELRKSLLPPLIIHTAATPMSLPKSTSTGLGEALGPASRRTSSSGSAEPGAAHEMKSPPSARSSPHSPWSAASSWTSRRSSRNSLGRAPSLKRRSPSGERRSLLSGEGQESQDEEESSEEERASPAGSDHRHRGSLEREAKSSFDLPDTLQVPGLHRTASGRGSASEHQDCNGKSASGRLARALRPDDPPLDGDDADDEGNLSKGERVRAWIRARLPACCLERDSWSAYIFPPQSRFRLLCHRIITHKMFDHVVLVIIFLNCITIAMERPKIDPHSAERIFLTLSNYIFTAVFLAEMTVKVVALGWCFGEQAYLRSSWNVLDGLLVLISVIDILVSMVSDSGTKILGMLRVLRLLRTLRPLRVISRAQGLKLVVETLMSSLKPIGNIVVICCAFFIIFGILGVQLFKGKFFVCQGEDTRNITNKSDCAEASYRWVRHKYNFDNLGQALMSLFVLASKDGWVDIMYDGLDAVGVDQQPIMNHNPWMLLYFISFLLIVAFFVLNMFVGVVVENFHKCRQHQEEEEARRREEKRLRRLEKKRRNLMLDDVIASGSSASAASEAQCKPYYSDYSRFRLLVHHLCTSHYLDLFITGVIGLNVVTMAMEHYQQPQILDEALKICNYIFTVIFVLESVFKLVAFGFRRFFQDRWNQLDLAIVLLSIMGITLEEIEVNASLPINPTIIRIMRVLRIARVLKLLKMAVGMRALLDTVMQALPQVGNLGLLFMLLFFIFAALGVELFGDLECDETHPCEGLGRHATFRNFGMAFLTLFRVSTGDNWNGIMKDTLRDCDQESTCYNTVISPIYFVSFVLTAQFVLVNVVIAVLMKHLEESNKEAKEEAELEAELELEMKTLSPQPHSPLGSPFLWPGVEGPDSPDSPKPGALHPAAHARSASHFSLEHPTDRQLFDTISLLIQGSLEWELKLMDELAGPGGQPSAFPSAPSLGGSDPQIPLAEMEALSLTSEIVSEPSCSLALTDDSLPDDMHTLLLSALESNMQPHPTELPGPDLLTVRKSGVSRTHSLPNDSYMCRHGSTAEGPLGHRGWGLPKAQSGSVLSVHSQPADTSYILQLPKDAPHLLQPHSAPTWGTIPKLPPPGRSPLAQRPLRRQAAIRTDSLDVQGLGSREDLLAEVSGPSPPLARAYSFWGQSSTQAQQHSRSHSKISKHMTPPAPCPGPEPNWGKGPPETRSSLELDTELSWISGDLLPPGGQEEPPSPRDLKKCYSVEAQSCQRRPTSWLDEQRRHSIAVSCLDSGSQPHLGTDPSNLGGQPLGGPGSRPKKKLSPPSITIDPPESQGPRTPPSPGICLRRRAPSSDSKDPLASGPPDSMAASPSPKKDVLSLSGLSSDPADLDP
- measurement_protocol: T-type calcium channel block, whole cell patch clamp (α1G)
- Assay type: cell-based
- test_parameters: HEK cells stably expressing human α1G; mainly non-inactivated protocol; values above 10 μM represented as 10 μM, values below 0.30 μM represented as 0.30 μM
Class assignment keyed on IC50, ranges lower band (below 1000 nM), central band (1000 nM to below 2000 nM), upper band (2000 nM or more)

Some solved entries appear below for comparison.
• O=C(NC[C@H]1CC[C@@H](NCc2ncccc2O)CC1)c1cc(F)cc(C(F)(F)F)c1 [Compound 16] = upper band
• O=C(CN[C@H]1CC[C@@H](CNC(=O)c2cc(C(F)(F)F)cc(C(F)(F)F)c2)CC1)NN1CCCCC1 [Compound 45] = lower band
• Cc1ccc(-c2csc(NC(=O)C[C@H]3CC[C@H](NCC(O)(C(F)(F)F)C(F)(F)F)CC3)n2)cc1 [Compound 151] = lower band
• CC(C)(C)NC(=O)CN[C@H]1CC[C@@H](CNC(=O)c2cccc(Cl)c2)CC1 [Compound 179] = upper band
• COc1cc(F)cc(C(=O)NC[C@H]2CC[C@H](NCC(=O)N3CCCC3(C)C)CC2)c1 [Compound 209] = upper band

Lab note: which band did O=C(C[C@H]1CC[C@@H](NC(=O)[C@@H]2C[C@@H](c3ccccc3)CN2)CC1)NCc1cccc(OC(F)(F)F)c1 [Compound 116] land in?
upper band

Lab note: which band did CC(C)(C)C(O)CN[C@H]1CC[C@@H](CNC(=O)c2cc(F)cc(C(F)(F)F)c2)CC1 (some centres unmarked) [Compound 2] land in?
lower band
